Please respond with reported inhibition at 100 µM for every item in the list.
system.tested: β-D-glucosidase (bovine liver) (Bos taurus)
Sequence (F1MNT6 1-469): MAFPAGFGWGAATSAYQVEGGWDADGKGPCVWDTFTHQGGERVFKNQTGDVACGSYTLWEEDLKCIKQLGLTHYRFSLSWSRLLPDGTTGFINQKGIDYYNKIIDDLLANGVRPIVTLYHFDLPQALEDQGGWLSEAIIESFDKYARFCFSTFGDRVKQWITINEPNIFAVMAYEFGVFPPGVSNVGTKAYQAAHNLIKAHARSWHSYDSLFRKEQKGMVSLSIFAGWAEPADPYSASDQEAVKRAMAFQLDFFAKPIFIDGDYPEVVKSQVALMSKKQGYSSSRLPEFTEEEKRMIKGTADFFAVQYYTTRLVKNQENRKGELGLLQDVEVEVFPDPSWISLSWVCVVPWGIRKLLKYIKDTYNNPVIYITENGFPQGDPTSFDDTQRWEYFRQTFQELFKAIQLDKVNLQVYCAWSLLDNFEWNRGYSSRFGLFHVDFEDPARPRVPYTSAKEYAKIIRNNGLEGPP
method.summary: Glycosidase inhibition (Table 2 panel)
Type: biochemical
run.parameters: at 100 μM
Answers are plain numbers, in %.

Illustrative cases are given below, each with its answer.
compound	value.units	reported.measurement
N[C@@H](Cc1ccc(B(O)O)cc1)C(=O)O [BPA, 4-borono-L-phenylalanine, reference compound]	%	0
CC1(C)O[C@H]2O[C@H]3[C@@H]([C@H]2O1)N(Cc1cccc(B(O)O)c1)C[C@H]3O	%	23
CC1(C)O[C@H]2O[C@H]3[C@@H]([C@H]2O1)N(Cc1ccccc1B(O)O)C[C@H]3O	%	13.4
OC[C@H](O)[C@@H]1[C@H](O)[C@H](O)CN1Cc1cccc(B(O)O)c1	%	0
CC1(C)O[C@H]2O[C@H]3[C@@H]([C@H]2O1)N(Cc1ccccc1B1OC(C)(C)C(C)(C)O1)C[C@H]3O	%	4.9
OB(O)c1ccccc1CN1C[C@@H](O)[C@H]2OC(O)[C@H](O)[C@H]21 (stereo partly shown)	%	0

// for each compound in input: emit inhibition at 100 µM
1. OC[C@H](O)[C@@H]1[C@H](O)[C@H](O)CN1Cc1ccccc1B(O)O
2. CC1(C)O[C@H]2O[C@H]3[C@@H]([C@H]2O1)N(Cc1cccc(B2OC(C)(C)C(C)(C)O2)c1)C[C@H]3O
3. OB(O)c1cccc(CN2C[C@@H](O)[C@H]3OC(O)[C@H](O)[C@H]32)c1 (stereo partly shown)

Reply:
1: 3.3; 2: 0; 3: 8.2

Query: # get_value(readout='inhibition at 100 µM', item= CC1(C)O[C@H]2O[C@H]3[C@@H]([C@H]2O1)N(Cc1cccc(O)c1)C[C@H]3O )
Reply: 15.8

* * *

system.tested: UniProt:P53341
test.readout: IC50 (µM)
One number for each entry, in µM.

Query: # get_value(readout='IC50', item= OC[C@H](O)[C@@H]1[C@H](O)[C@H](O)CN1Cc1ccccc1B(O)O )
Reply: 784

* * *

System: β-D-glucosidase (almond)
method.summary: Glycosidase inhibition (Table 2 panel)
Format: biochemical
run.parameters: at 100 μM

compound	inhibition % β-D-Glucosidase Almond
CC1(C)O[C@H]2O[C@H]3[C@@H]([C@H]2O1)N(Cc1cccc(B(O)O)c1)C[C@H]3O [meta 5]	^cNI ^d(0%)
N[C@@H](Cc1ccc(B(O)O)cc1)C(=O)O [^10B-BPA, reference compound]	^cNI ^d(0%)
N[C@@H](Cc1ccc(B(O)O)cc1)C(=O)O [BPA, 4-borono-L-phenylalanine, reference compound]	^cNI ^d(0%)

* * *

system.tested: α-D-glucosidase (yeast) (Saccharomyces cerevisiae)
Construct: purchased Sigma-Aldrich
Sequence (P53341 whole entry): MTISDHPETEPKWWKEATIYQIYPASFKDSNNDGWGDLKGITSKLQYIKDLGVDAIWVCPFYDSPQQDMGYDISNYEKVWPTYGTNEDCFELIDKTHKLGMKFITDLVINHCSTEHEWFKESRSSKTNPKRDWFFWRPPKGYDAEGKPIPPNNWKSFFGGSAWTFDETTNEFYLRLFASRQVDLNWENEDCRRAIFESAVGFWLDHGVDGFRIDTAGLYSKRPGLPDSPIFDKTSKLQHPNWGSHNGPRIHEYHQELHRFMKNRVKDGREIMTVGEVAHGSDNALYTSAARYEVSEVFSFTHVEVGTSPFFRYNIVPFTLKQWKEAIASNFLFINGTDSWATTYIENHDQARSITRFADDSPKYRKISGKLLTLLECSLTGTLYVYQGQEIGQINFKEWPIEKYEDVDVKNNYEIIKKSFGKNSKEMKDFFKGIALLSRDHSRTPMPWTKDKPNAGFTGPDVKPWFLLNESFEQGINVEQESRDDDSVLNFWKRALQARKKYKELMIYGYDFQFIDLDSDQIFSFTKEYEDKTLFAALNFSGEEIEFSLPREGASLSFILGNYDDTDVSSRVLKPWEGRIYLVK
method.summary: Glycosidase inhibition (Table 3 panel)
Format: biochemical
run.parameters: 1 mg/mL aqueous solution; run in water
test.readout: Percentage inhibition α-D-Glucosidase Yeast (%)
Numbers only, in %.

Illustrative cases are given below, each with its answer.
molecule	reported.measurement
CC1(C)O[C@H]2O[C@H]3[C@@H]([C@H]2O1)N(Cc1cccc(B(O)O)c1)C[C@H]3O [meta 5]	13.7
CC1(C)O[C@H]2O[C@H]3[C@@H]([C@H]2O1)N(Cc1ccccc1B(O)O)C[C@H]3O [ortho 5]	11
N[C@@H](Cc1ccc(B(O)O)cc1)C(=O)O [^10B-BPA, reference compound]	3.4

Then there is this molecule:
Query: Lab note: need Percentage inhibition α-D-Glucosidase Yeast with α-D-glucosidase (yeast) (Saccharomyces cerevisiae) for entry CC1(C)O[C@H]2O[C@H]3[C@@H]([C@H]2O1)N(Cc1cccc(B2OC(C)(C)C(C)(C)O2)c1)C[C@H]3O [meta 2] , please look it up.
Reply: 7.9

* * *

Tested on: N-acetyl-β-D-hexosaminidase (rat intestine)
method.summary: Glycosidase inhibition (Table 3 panel)
Type: biochemical
run.parameters: 1 mg/mL aqueous solution; run in water
test.readout: Percentage inhibition N-Acetyl-β-D-Hexosaminidase Rat Intestine (%)
Give bare numbers, in %.

Illustrative cases are given below, each with its answer.
compound	system.tested	reported.measurement
OB(O)c1ccccc1CN1C[C@@H](O)[C@H]2OC(O)[C@H](O)[C@H]21 (stereo partly drawn)	N-acetyl-β-D-hexosaminidase (rat intestine)	19.2
CC1(C)O[C@H]2O[C@H]3[C@@H]([C@H]2O1)N(Cc1cccc(B2OC(C)(C)C(C)(C)O2)c1)C[C@H]3O	N-acetyl-β-D-hexosaminidase (rat intestine)	11.5
OB(O)c1cccc(CN2C[C@@H](O)[C@H]3OC(O)[C@H](O)[C@H]32)c1 (stereo partly drawn)	N-acetyl-β-D-hexosaminidase (rat intestine)	8.7
CC1(C)O[C@H]2O[C@H]3[C@@H]([C@H]2O1)N(Cc1cccc(B(O)O)c1)C[C@H]3O	N-acetyl-β-D-hexosaminidase (rat intestine)	5
OC[C@H](O)[C@@H]1[C@H](O)[C@H](O)CN1Cc1ccccc1B(O)O	N-acetyl-β-D-hexosaminidase (rat intestine)	−0.2

// for each compound in input: emit Percentage inhibition N-Acetyl-β-D-Hexosaminidase Rat Intestine
1. CC1(C)O[C@H]2O[C@H]3[C@@H]([C@H]2O1)N(Cc1cccc(O)c1)C[C@H]3O
2. OC[C@H](O)[C@@H]1[C@H](O)[C@H](O)CN1Cc1cccc(B(O)O)c1
3. CC1(C)O[C@H]2O[C@H]3[C@@H]([C@H]2O1)N(Cc1ccccc1B1OC(C)(C)C(C)(C)O1)C[C@H]3O
4. CC1(C)O[C@H]2O[C@H]3[C@@H]([C@H]2O1)N(Cc1ccccc1B(O)O)C[C@H]3O

Reply:
["−0.7", "−2.2", 13.8, 5.2]

* * *

Tested on: α-L-rhamnosidase (P. decumbens)
method.summary: Glycosidase inhibition (Table 2 panel)
Format: biochemical
run.parameters: at 100 μM
test.readout: inhibition % α-L-Rhamnosidase P. decumbens

Illustrative cases are given below, each with its answer.
compound	reported.measurement
CC1(C)O[C@H]2O[C@H]3[C@@H]([C@H]2O1)N(Cc1cccc(B2OC(C)(C)C(C)(C)O2)c1)C[C@H]3O	^cNI ^d(1.5%)
N[C@@H](Cc1ccc(B(O)O)cc1)C(=O)O [^10B-BPA, reference compound]	^cNI ^d(0%)
CC1(C)O[C@H]2O[C@H]3[C@@H]([C@H]2O1)N(Cc1ccccc1B(O)O)C[C@H]3O	^cNI ^d(0%)
CC1(C)O[C@H]2O[C@H]3[C@@H]([C@H]2O1)N(Cc1ccccc1B1OC(C)(C)C(C)(C)O1)C[C@H]3O	^cNI ^d(1.5%)
OB(O)c1ccccc1CN1C[C@@H](O)[C@H]2OC(O)[C@H](O)[C@H]21 (some centres unmarked)	^cNI ^d(0%)

Then there is this compound:
Query: Lab note: need inhibition % α-L-Rhamnosidase P. decumbens with α-L-rhamnosidase (P. decumbens) for entry N[C@@H](Cc1ccc(B(O)O)cc1)C(=O)O [BPA, 4-borono-L-phenylalanine, reference compound] , please look it up.
Reply: ^cNI ^d(0%)

* * *

Test system: β-D-glucosidase (almond)
method.summary: Glycosidase inhibition (Table 3 panel)
Format: biochemical
run.parameters: 1 mg/mL aqueous solution; run in water
test.readout: Percentage inhibition β-D-Glucosidase Almond (%)
Numbers only, in %.

Illustrative cases are given below, each with its answer.
molecule	value.units	reported.measurement
OB(O)c1cccc(CN2C[C@@H](O)[C@H]3OC(O)[C@H](O)[C@H]32)c1 (stereo partly shown)	%	61.7
N[C@@H](Cc1ccc(B(O)O)cc1)C(=O)O [BPA, 4-borono-L-phenylalanine, reference compound]	%	3.9
OC[C@H](O)[C@@H]1[C@H](O)[C@H](O)CN1Cc1ccccc1B(O)O	%	49.8

// for each molecule in input: emit Percentage inhibition β-D-Glucosidase Almond
1. CC1(C)O[C@H]2O[C@H]3[C@@H]([C@H]2O1)N(Cc1cccc(O)c1)C[C@H]3O
2. CC1(C)O[C@H]2O[C@H]3[C@@H]([C@H]2O1)N(Cc1ccccc1B1OC(C)(C)C(C)(C)O1)C[C@H]3O

Reply:
0.7
73.3

// for each molecule in input: emit Percentage inhibition β-D-Glucosidase Almond
1. CC1(C)O[C@H]2O[C@H]3[C@@H]([C@H]2O1)N(Cc1cccc(B(O)O)c1)C[C@H]3O
2. OC[C@H](O)[C@@H]1[C@H](O)[C@H](O)CN1Cc1cccc(B(O)O)c1

Reply:
[7.7, 47.9]

* * *

Tested on: β-D-glucosidase (almond)
method.summary: Glycosidase inhibition (Table 3 panel)
Format: biochemical
run.parameters: 1 mg/mL aqueous solution; run in water
test.readout: Percentage inhibition β-D-Glucosidase Almond (%)
Answers are plain numbers, in %.

Illustrative cases are given below, each with its answer.
compound	reported.measurement
N[C@@H](Cc1ccc(B(O)O)cc1)C(=O)O [^10B-BPA, reference compound]	3
CC1(C)O[C@H]2O[C@H]3[C@@H]([C@H]2O1)N(Cc1ccccc1B(O)O)C[C@H]3O	8.7
CC1(C)O[C@H]2O[C@H]3[C@@H]([C@H]2O1)N(Cc1cccc(B2OC(C)(C)C(C)(C)O2)c1)C[C@H]3O	13.2

Then there is this compound:
Query: # get_value(readout='Percentage inhibition β-D-Glucosidase Almond', item= OB(O)c1ccccc1CN1C[C@@H](O)[C@H]2OC(O)[C@H](O)[C@H]21 (stereo partly shown) )
Reply: 68.6
